B1: BRF1 (parent)
chain: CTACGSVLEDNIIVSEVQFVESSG

Variants of: B1
Test: protein stability index of a GFP-peptide fusion (GPS, HEK-293T) (PSI 1-6); higher = more stable;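 further: lentivirally expressed fusions sorted by FACS into six bins by GFP to DsRed ratio, PSI derived from sequencing read proportions per bin multiplied by bin number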
Settings: c terminus: a fixed tail appended
QUANTITY MEASURED: protein stability index
// no unit, no text: just the number

Look over these answered cases.
{"BIOSEQUENCE": "CTACGSVLEDNIIVSEVQFVESKG [S23K]", "protein stability index": 4.04}
{"BIOSEQUENCE": "CTACGFVLEDNIIVSEVQFVESSG [S6F]", "protein stability index": 1.24}
{"BIOSEQUENCE": "CTACGSVLEDNIIVSEVQFVESTG [S23T]", "protein stability index": 3.17}

Answer with the recorded protein stability index of CTACGSVLPDNIIVSEVQFVESSG [E9P] only.
3.75

Determine its reported protein stability index: CTACCSVLEDNIIVSEVQFVESSG [G5C]
1.78

Source of measurements: the supplement of paper PMC10567573
